Sourced from paper PMC12136788

Molecular target: T1, UNK ZnF1-3 (human, UniProt Q9C0B0 31-174)
T1 sequence: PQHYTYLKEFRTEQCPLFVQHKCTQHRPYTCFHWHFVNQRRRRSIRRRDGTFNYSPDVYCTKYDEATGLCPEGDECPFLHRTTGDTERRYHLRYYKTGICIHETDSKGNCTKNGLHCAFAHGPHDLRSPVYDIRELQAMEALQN
Assay: nsRBNS (natural sequence RNA bind-n-seq); RBNS binding buffer (assumed for nsRBNS): 25 mM Tris pH 7.5, 150 mM KCl, 3 mM MgCl2, 0.01% Triton X-100, 500 ug/ml BSA, 20 U/ml SUPERase-In, 4 C; UNK is unkempt and MSI1 is Musashi-1; names of the RNAs are library labels; protein concentration not given here; high values mean tight binding
Over roughly 24,000 sequences, “enrichment r” has its median near 0.99; the highest 2% begin near 3.7. This is one part of a sample in which the highest values are shown more often than they occur.
Measured Quantity: binding signal (enrichment R)
Give the quantity in enrichment R, number only.

Examples with their reported binding signal follow.
Binder: chr13:9170561:9170562:+_ENSMUSG00000033499_ENSMUST00000091829|mus_mus|motif|central (ssRNA) RNA: GGGAGUUCUACAGUCCGACGAUCCCAUCAGCCCCCAUCCAUCUGCUGGACACCCUACCAAUGCGCACUUGUAGACCAACGGUUAAAAAAAAAAAAAAAGGAAGUAGCAGAGUUCCCUUAAUUUAGAAAAACUCAUUAUAGCUUCAACAGAGGAUUGAGCAUCA
Numeric Readout: 4.58
//
Binder: 48821072_48822033_622_CDS_ENSG00000108848_ENST00000240304|human|control|control (ssRNA) RNA: GGGAGUUCUACAGUCCGACGAUCUGCAGCAAAGCUUUCAAUUGUCGACGUUGUGGACCUUAGCAGUUCUCUCUCUUCUUUUAAUUGCUCAACUAAUUUCAUCAUCCCCUGGGCUUCUUCUACUUUUCCUUCAGACCCUAAUUCCAACAGAGGAUUGAGCAUCA
Numeric Readout: 0.686

Read the next record carefully.
In plain terms, 30503004_30509812_319_CDS_ENSG00000126858_ENST00000394692|human|control|control (ssRNA) RNA: GGGAGUUCUACAGUCCGACGAUCCAGAUCAGAUUUGUUCCCAACCAAUAUUAAAGGCAGCCUGCUGUCUUUGUCUGUUCUUUCAUUUAUGAGAGGAAUCCAUCGACUUGUUACCUUAUCAAUAGAAUGCUUGUUGUUAACGGCCAACAGAGGAUUGAGCAUCA has a documented binding signal of 0.92
